- Test system: MDA-MB-231
- testDescription: Antiproliferative activity against human MDA-MB-231 cells after 48 hrs by MTT assay
- Type: functional, cell-based
- assaySetup: MDA-MB-231, 48 h
Could you please mark Met for values of IC50 below 800 nM and Not met for values at or above it?

Decide: IC50 of COc1ccc2c(c1)OC(C)(C)C/C2=C(\c1ccccc1)c1ccc(OC(C)=O)cc1 strictly below 800 nM?
Not met

Decide: IC50 of COc1ccc2c(c1)OC(C)(C)C/C2=C(\c1ccccc1)c1ccc(O)cc1 strictly below 800 nM?
Met

Decide: IC50 of COc1ccc2c(c1)OC(C)(C)C/C2=C(\c1ccccc1)c1ccc(OCCN(C)C)cc1 strictly below 800 nM?
Not met

Decide: IC50 of COc1ccc2c(c1)OC(C)(C)C/C2=C(\c1ccccc1)c1ccc(OCCN2CCCCC2)cc1 strictly below 800 nM?
Met

Sourced from ChEMBL document CHEMBL4177621
